Recorded values, source the supplement of paper PMC10567573.

B1: ATL3 (parent)
chain: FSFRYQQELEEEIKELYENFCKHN

variants of: B1; test: protein stability index of a GFP-peptide fusion (GPS, HEK-293T) (PSI 1-6); higher = more stable; conditions: c terminus: a fixed tail appended;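 also: lentivirally expressed fusions sorted by FACS into six bins by GFP to DsRed ratio, PSI derived from sequencing read proportions per bin multiplied by bin number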
The reader will find reported protein stability index values listed item by item below.
// no unit, no text: just the number

Recorded results for 3 variants are shown here.
Y17H: 3.05
F20K: 2.81
E15N: 1.75

What measured protein stability index goes with C21F ?
2.1

And what about the variant I13D ?
2.69

Moving on to K14D
2.81

Now try C21T .
1.97

Likewise for Y17Q ?
4.02

What about this variant? Q7A
2.04

Note, next up: E10Y
1.75

Now the same for E11N
2.69

Can you handle Y5I next?
2.77

How about this variant: N24K
2.48

Would you kindly repeat that for L9W ?
2.66

Now give it for L9G too.
2.75

Can you check E15P next?
1.59

And E10M ?
1.75

Another variant to look at: S2I
1.7

Same question for F1H please.
3.35

Would you kindly repeat that for L9K ?
2.68

Note, next up: L16V
2.28

Moving on to H23W
2.14

Lookup F3N
2.85

Ok, now E12G
2.1

Now try Q6W .
1.51

And then K14H , what is it?
2.28

And what about the variant S2P ?
2.63
